# measured.target: UniProt:P34897
# Sequence (P34897 whole entry): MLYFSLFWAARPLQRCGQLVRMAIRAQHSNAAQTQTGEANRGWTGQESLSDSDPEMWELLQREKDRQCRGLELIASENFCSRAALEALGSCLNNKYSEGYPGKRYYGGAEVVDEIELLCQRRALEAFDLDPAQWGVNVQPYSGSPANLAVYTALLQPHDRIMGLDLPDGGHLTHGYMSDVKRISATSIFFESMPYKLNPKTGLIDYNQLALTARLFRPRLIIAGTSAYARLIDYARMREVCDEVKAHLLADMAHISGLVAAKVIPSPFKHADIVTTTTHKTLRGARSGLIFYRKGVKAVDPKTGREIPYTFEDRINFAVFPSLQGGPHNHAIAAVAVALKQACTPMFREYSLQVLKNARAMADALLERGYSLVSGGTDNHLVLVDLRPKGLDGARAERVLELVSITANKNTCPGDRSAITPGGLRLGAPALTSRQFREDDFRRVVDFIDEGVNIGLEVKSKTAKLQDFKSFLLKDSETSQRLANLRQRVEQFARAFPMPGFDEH
# test.name: Inhibition of His-tagged human recombinant SHMT2 expressed in Escherichia coli BLR(DE3) assessed as reduction in NADPH level using L-serine, THF and NADP+ incubated for 5 mins by SHMT2-MTHFD coupled reaction based fluorescence assay
# condition.parameters: read-out: IC50
reported.property: pIC50
pIC50 (log units): -log10 of the concentration in mol/L.

Look over these answered cases.
{"compound": "COc1ccc(OC)c(NC(=O)CSc2nc3ncccc3o2)c1", "pIC50": 5.67}
{"compound": "COc1ccc2c(c1)C=C(C(=O)Nc1ccc(OC)cc1OC)CO2", "pIC50": 5.06}
{"compound": "CCOc1ccc(Nc2ncnc3sc(C(=O)O)c(C)c23)cc1", "pIC50": 5.03}
{"compound": "COc1ccc(OC)c(NC2c3ncccc3C(=O)N2c2ccccc2)c1 (stereo unspecified)", "pIC50": 4.81}
{"compound": "O=C(Nc1cc(F)c2nc(N3CCOCC3)ccc2c1)c1ccco1", "pIC50": 5.45}
{"compound": "CNC(=O)c1oc2c(c1C)C1N=C(C)SC1CC2 (stereo unspecified)", "pIC50": 5.29}

Reported pIC50 of CC(C)Cn1cc(NC(=O)N2CCN(c3cccc(Cl)c3)CC2)c2ccccc2c1=O : 5.23

response.value for Cc1cc(NC(=O)N2CCSc3ncccc32)ccc1Br (field: pIC50) = 5.36

Sure, the documented pIC50 for CC(C)Cn1cc(NC(=O)NCCN2CCC(C)CC2)c2ccccc2c1=O is 5.42
